test.system: T1, Formyl-Peptide Receptor 1 (UniProt P21462 1-350, limits assumed)
T1 sequence (looked up): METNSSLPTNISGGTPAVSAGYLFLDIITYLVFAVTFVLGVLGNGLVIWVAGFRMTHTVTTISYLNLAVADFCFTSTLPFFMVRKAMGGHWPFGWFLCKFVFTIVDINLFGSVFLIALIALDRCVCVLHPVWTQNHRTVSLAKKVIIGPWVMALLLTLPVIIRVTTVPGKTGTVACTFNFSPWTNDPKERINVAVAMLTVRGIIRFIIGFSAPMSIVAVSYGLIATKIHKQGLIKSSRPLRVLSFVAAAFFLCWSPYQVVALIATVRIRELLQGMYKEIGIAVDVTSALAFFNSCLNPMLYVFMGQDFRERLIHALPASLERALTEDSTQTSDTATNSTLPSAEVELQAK
test.details: cell-based or functional assay
*1 amine or outer side, *2 acyl side, *3 side chain or, on linkers, in order; H or OH if unused. Bridges are numbered along the chain shown (N, C = ends). [ ]: non-standard residue; d: D form. Pro(trans-4-NH2) = O=C([C@@H]1C[C@@H](N[*:3])CN1[*:1])[*:2]
A collection of binders and their measured β-Arrestin IC50
Number only, in nM; omit the unit.

1) cyclo(AHACWG[dP]WTICYQK[dP]P) (disulfide 4-11; SMILES CC[C@H](C)[C@@H]1NC(=O)[C@H]([C@@H](C)O)NC(=O)[C@H](Cc2c[nH]c3ccccc23)NC(=O)[C@H]2CCCN2C(=O)CNC(=O)[C@H](Cc2c[nH]c3ccccc23)NC(=O)[C@@H]2CSSC[C@H](NC1=O)C(=O)N[C@@H](Cc1ccc(O)cc1)C(=O)N[C@@H](CCC(N)=O)C(=O)N[C@@H](CCCCN)C(=O)N1CCC[C@@H]1C(=O)N1CCC[C@H]1C(=O)N[C@@H](C)C(=O)N[C@@H](Cc1c[nH]cn1)C(=O)N[C@@H](C)C(=O)N2) [cyclo(-Ala-His-Ala-Cys-Trp-Gly-^DPro-Trp-Thr-Ile-Cys-Tyr-Gln-Lys-^DPro-Pro-)]; 404

Input cyclo(YHKCHG[dP]WTICYEK[dP][Pro(trans-4-NH2)]) (disulfide 4-11; SMILES CC[C@H](C)[C@@H]1NC(=O)[C@H]([C@@H](C)O)NC(=O)[C@H](Cc2c[nH]c3ccccc23)NC(=O)[C@H]2CCCN2C(=O)CNC(=O)[C@H](Cc2c[nH]cn2)NC(=O)[C@@H]2CSSC[C@H](NC1=O)C(=O)N[C@@H](Cc1ccc(O)cc1)C(=O)N[C@@H](CCC(=O)O)C(=O)N[C@@H](CCCCN)C(=O)N1CCC[C@@H]1C(=O)N1C[C@H](N)C[C@H]1C(=O)N[C@@H](Cc1ccc(O)cc1)C(=O)N[C@@H](Cc1c[nH]cn1)C(=O)N[C@@H](CCCCN)C(=O)N2) [cyclo(-Tyr-His-Lys-Cys-His-Gly-^DPro-Trp-Thr-Ile-Cys-Tyr-Glu-Lys-^DPro-Pro((4R)NH2)-)] , output reported β-Arrestin IC50.
82
